# log10(TGI) listing for each entry below
test system: SNB-75 CNS; assay: NCI tumour cell line growth inhibition, 48 h
Please note: log10 values; quantity TGI; unit µM.

Below, 3 compounds whose answers are already recorded.
## Task What value of measured log10(TGI) is listed for "ClCCc1ccccc1CC1=NCCc2ccccc21" ?
## Result 1.99

## Task What log10(TGI) value was documented for this compound, "COc1ccccc1N1CCN(CCCOc2ccc(C(=O)/C=C3/C(=O)Nc4ccccc43)cc2)CC1" ?
## Result 1.64

## Task // query log10(TGI) value for entry "Clc1nc(Nc2nc3ccccc3[nH]2)nc(Cl)c1-c1ccccc1"
## Result 1.60

Continuing:
## Task Which log10(TGI) value is on record for "COC(=O)[C@]1(Cc2ccc3ccccc3c2)CCCCCCN1C(=O)c1ccccc1" ?
## Result 1.74

## Task For the compound "C=C1C(=O)O[C@H]2[C@H]1CC/C(Cn1cc(-c3ccsc3)nn1)=C\CC[C@@]1(C)O[C@@H]21" , what log10(TGI) is on record?
## Result 1.26
